Each recorded value in this set is attributed to paper PMC8187479.

target: eIF2Bα (Homo sapiens, UniProt Q14232)
Please respond with reported Kd for every item in the list.
Please report the result as a number followed by the unit.

- O=C(CO)[C@@H](O)[C@H](O)[C@H](O)COP(=O)(O)O [F6P, fructose-6-phosphate]: 9.4 µM

# input I am curious: what Kd value has been reported for O=C[C@@H](O)[C@@H](O)[C@H](O)[C@H](O)COP(=O)(O)O [M6P, mannose-6-phosphate] ?
# output 282 µM

----------
target: eIF2Bα (Homo sapiens); construct: made in house; host or cells: E. coli BL21(DE3); assay: MIDAS (mass spectrometry integrated with equilibrium dialysis) metabolite binding screen; conditions: MIDAS screen, sheet eIF2Ba; metabolites screened in pools 1-4; p-value and q-value given
log2(corrected fold change) of 0.08 or higher: Fulfilled. Under 0.08: Not fulfilled.

Check out these entries, answers already filled in.
* O=P(O)(O)OC1O[C@H](CO)[C@@H](O)[C@H](O)[C@@H]1O (stereo partly drawn) [Mannose 1-phosphate] | Not fulfilled
* NCCc1c[nH]cn1 [Histamine] | Fulfilled
* N[C@@H](Cc1cc(I)c(O)c(I)c1)C(=O)O [3,5-Diiodo-L-tyrosine] | Not fulfilled
* NCCCN [1,3-Diaminopropane] | Fulfilled
* N[C@@H](CC(=O)O)C(=O)O [L-Aspartate] | Not fulfilled

# input Does the molecule N[C@@H](Cc1ccc(O)c(I)c1)C(=O)O [3-Iodo-L-tyrosine] have recorded log2(corrected fold change) that is 0.08 or more?
# output Fulfilled

# input Entry OC[C@H]1O[C@H](OC[C@H]2OC(O)[C@H](O)[C@@H](O)[C@@H]2O)[C@H](O)[C@@H](O)[C@@H]1O (stereo partly drawn) [Isomaltose] please
# output Not fulfilled

# input Entry CC(=O)CC(=O)O [Acetoacetate] please
# output Not fulfilled

# input Entry CCCCC[C@H](O)/C=C/[C@@H]1[C@H]2C/C(=C/CCCC(=O)O)O[C@H]2C[C@H]1O [Prostaglandin I2] please
# output Not fulfilled

# input Entry N[C@@H](Cc1ccc(O)c(O)c1)C(=O)O [3,4-Dihydroxy-L-phenylalanine] please
# output Fulfilled

# input Entry CC(CNC(N)=O)C(=O)O (racemic) [DL-3-Ureidoisobutyric acid] please
# output Fulfilled

----------
biological target: eIF2Bα^V183F (Homo sapiens, UniProt Q14232, V183F); assay: Isothermal titration calorimetry, eIF2Bα V183F; conditions: ITC
experimentalEndpoint: Kd (µM)
Give bare numbers, in µM.

# input I am curious: what Kd value has been reported for O=C(CO)[C@@H](O)[C@H](O)[C@H](O)COP(=O)(O)O [F6P, fructose-6-phosphate] ?
# output 6.3

----------
Please respond with reported log2(corrected fold change) for every item in the list.
target: eIF2Bα (Homo sapiens, UniProt Q14232); construct: made in house; host or cells: E. coli BL21(DE3); assay: MIDAS (mass spectrometry integrated with equilibrium dialysis) metabolite binding screen; conditions: MIDAS screen, sheet eIF2Ba; metabolites screened in pools 1-4; p-value and q-value given
One number for each entry.

* Nc1ccn([C@H]2C[C@H](O)[C@@H](CO)O2)c(=O)n1 | 0.344
* CC(C)CC(=O)C(=O)O | -0.05419
* Nc1nc2c(ncn2[C@H]2C[C@H](O)[C@@H](CO)O2)c(=O)[nH]1 | -0.1329
* O=C(O)[C@@H]1CCCCN1 | -0.07553

Provide each entry's log2(corrected fold change) from the list below.
1. O=C[C@H](O)[C@H](O)[C@H](O)COP(=O)(O)O [D-Ribose 5-phosphate]
2. COc1ccc2[nH]cc(CCN)c2c1
3. NC(=O)CCC(N)C(=O)O (stereo in doubt)
4. O=c1[nH]c(=O)c2[nH]c(=O)[nH]c2[nH]1
5. O=P(O)(O)OC[C@H](O)CO [D-Glycerol 1-phosphate]
6. NC(=O)c1ncn([C@@H]2O[C@H](CO)[C@@H](O)[C@H]2O)c1N

# output
0.3189
0.274
0.1976
-0.09817
0.1183
0.005355

----------
Please respond with reported log2(corrected fold change) for every item in the list.
biological target: eIF2Bα (Homo sapiens, UniProt Q14232); construct: made in house; host or cells: E. coli BL21(DE3); test: MIDAS (mass spectrometry integrated with equilibrium dialysis) metabolite binding screen; details: MIDAS metabolite binding screen with eIF2Bα; sheet "eIF2Ba"
Give bare numbers.

* N[C@@H](CSSC[C@H](N)C(=O)O)C(=O)O | 0.04101
* NCCc1ccccc1 | -0.07261
* C[C@@H]1O[C@H](OP(=O)(O)O)[C@@H](O)[C@H](O)[C@@H]1O [L-Fucose 1-phosphate] | -0.0359
* CC(O)(CC(=O)O)C(=O)O (centres unmarked) [Citramalate] | -0.0058

Please look at the following compound next.
# input I am curious: what log2(corrected fold change) value has been reported for `O=C(O)CO` ?
# output -0.06864

----------
Target: eIF2Bα (Homo sapiens, UniProt Q14232)
Construct: made in house; host or cells: E. coli BL21(DE3)
Sequence (Q14232 1-305): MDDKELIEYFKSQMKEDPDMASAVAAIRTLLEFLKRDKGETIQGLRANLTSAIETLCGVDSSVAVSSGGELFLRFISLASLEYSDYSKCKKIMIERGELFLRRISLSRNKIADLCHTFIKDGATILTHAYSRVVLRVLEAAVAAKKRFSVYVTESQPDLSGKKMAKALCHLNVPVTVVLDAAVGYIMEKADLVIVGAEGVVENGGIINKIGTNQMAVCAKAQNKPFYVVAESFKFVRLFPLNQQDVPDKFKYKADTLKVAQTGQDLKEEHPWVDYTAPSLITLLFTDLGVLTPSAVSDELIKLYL
Test: MIDAS (mass spectrometry integrated with equilibrium dialysis) metabolite binding screen
Details: MIDAS screen, sheet eIF2Ba; metabolites screened in pools 1-4; p-value and q-value given
log2(corrected fold change) of 0.07 or higher: YES. Under 0.07: NO.

Check out these entries, answers already filled in.
- NCCCCN=C(N)N: YES
- Nc1nc(=O)c2c([nH]1)NC[C@@H](CNc1ccc(C(=O)N[C@@H](CCC(=O)O)C(=O)O)cc1)N2C=O: YES
- CN(C)c1ncnc2nc[nH]c12: NO
- CNCC(O)c1ccc(O)c(OC)c1 (centres unmarked): NO
- NCCCCCN: YES
- O=C(O)CNC(=O)Cc1ccccc1: YES

# input Does the compound `OC[C@@H](O)[C@H](O)[C@@H](O)CO` have recorded log2(corrected fold change) that is 0.07 or more?
# output NO

# input Entry `N[C@@H](CCC(=O)O)C(=O)O` please
# output NO

# input Entry `NCCOP(=O)(O)O` please
# output YES

# input Entry `COc1cc(CCN)ccc1O` please
# output YES

# input Entry C[N+](C)(C)CC(O)CC(=O)[O-] (centres unmarked) please
# output NO

# input Entry `O=C(O)C(=O)CS(=O)(=O)O` please
# output NO

# input Entry `CC(C)(COP(=O)(O)OP(=O)(O)OC[C@H]1O[C@@H](n2cnc3c(N)ncnc32)[C@H](O)[C@@H]1OP(=O)(O)O)[C@H](O)C(=O)NCCC(=O)NCCSC(=O)CCC(=O)O` please
# output YES

# input Entry `NCc1[nH]cc(CCC(=O)O)c1CC(=O)O` please
# output NO

----------
biological target: eIF2Bα (Homo sapiens, UniProt Q14232); construct: made in house; host or cells: E. coli BL21(DE3); test: MIDAS (mass spectrometry integrated with equilibrium dialysis) metabolite binding screen; details: MIDAS screen, sheet eIF2Ba; metabolites screened in pools 1-4; p-value and q-value given
experimentalEndpoint: log2(corrected fold change)

Worked set:
* CCC(=O)SCCNC(=O)CCNC(=O)[C@H](O)C(C)(C)COP(=O)(O)OP(=O)(O)OC[C@H]1O[C@@H](n2cnc3c(N)ncnc32)[C@H](O)[C@@H]1OP(=O)(O)O | 0.4521
* C/C(=C/C(=O)O)C(=O)O | 0.0972
* Nc1c(C(=O)O)c2nc3c(C(=O)O)cccc3oc-2cc1=O | -0.1918
* O=C(O)c1cccnc1C(=O)O | 0.05596
* COc1ccc2[nH]cc(CC(=O)O)c2c1 | -0.03075

Provide each entry's log2(corrected fold change) from the list below.
1. CCC(=O)C(=O)O
2. NC(=O)C[C@H](N)C(=O)O
3. CC(CC(=O)O)CC(=O)O

# output
-0.05529
0.07649
-0.09665

----------
Biological target: eIF2Bα (Homo sapiens, UniProt Q14232)
Construct: made in house; host or cells: E. coli BL21(DE3)
Sequence (Q14232 1-305): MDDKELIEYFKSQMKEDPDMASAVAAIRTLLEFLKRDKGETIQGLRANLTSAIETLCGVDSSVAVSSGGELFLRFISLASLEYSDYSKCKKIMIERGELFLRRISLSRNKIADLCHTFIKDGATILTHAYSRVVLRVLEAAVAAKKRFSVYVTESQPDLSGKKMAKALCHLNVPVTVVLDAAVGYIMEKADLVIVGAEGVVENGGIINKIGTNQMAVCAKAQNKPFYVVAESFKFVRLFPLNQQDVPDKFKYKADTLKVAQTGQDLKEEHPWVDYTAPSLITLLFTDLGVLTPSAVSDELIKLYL
Test: MIDAS (mass spectrometry integrated with equilibrium dialysis) metabolite binding screen
Conditions: MIDAS metabolite binding screen with eIF2Bα; sheet "eIF2Ba"
Hi! Just check whether log2(corrected fold change) is below 0.005. Below gives met, equal or above gives not met.

# input Lab note: confirm whether the reported log2(corrected fold change) for this molecule is below 0.005, equality not counting. molecule: O=C(CO)[C@@H](O)[C@H](O)CO [D-Xylulose]
# output met

# input Entry CN(C)CC(=O)O [N,N-Dimethylglycine] please
# output not met

# input Entry O=C(O)C(COP(=O)(O)O)OP(=O)(O)O [2,3-Diphospho-D-glyceric acid] please
# output met

# input Entry CC(C)=CC(=O)O [3,3-Dimethylacrylic acid] please
# output not met
